src = PubChem BioAssay

protocol.summary: anti-His antibody binders, primary screen, artefact control for SMM control protein annotation, biochemical, small-molecule microarray, 635 nm fluorescence (AID 1128);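 further: score merges feature fluorescence with signal-to-noise for each printed compound spot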
stated.conditions: anti-His Alexa647 antibody binding, higher = more signal
Provide the reported composite z-score of each item.
Answers are plain numbers.

Some solved entries appear below for comparison.
COC(=O)[C@@]1(Cc2ccc(F)cc2)[C@H]2c3cc(C(=O)N(C)C)n(CCF)c3C[C@H]2CN1C(=O)c1ccccc1: 1.67
COCCOC(=O)N1C(=O)[C@@]2(c3cc(C#CCC(C(=O)OC)C(=O)OC)ccc31)[C@H](c1ccc(O)cc1)N1[C@H](c3ccccc3)[C@H](c3ccccc3)OC(=O)[C@H]1[C@@H]2C(=O)N1CCc2cc(OC)c(OC)cc2C1: 2.46
CCOC(=O)C1=CC[C@@H](c2ccccc2)N(S(=O)(=O)c2ccc(C)cc2)[C@@H]1C#N: 2.09
COCCCNC(=O)[C@@]1(Cc2ccccc2I)c2ccccc2C(=O)N(Cc2ccccc2OC)[C@H]1c1ccc(CO)cc1: 3.03
COC(=O)C1(CC(C)C)C=C2C(=C(C)C(=O)C2C)CN1 (configuration not stated): 2.95
C=C(COC)C(=O)CC[C@H](OC(C)=O)c1ccccc1OCCO: 0.342
C=CCOC(=O)[C@H]1[C@@H]2C(=O)O[C@@H](c3ccccc3)[C@@H](c3ccccc3)N2[C@@H](c2ccc(OCCOC(=O)[C@H]3C[C@H]4C(=O)NCC(=O)N4[C@H]3c3ccc(O)cc3)cc2)[C@]12C(=O)Nc1ccccc12: 1.46
COc1cc2c(cc1OC)CN(C(=O)[C@@H]1[C@H]3C(=O)O[C@H](c4ccccc4)[C@H](c4ccccc4)N3[C@H](c3ccc(O)cc3)[C@@]13C(=O)Nc1ccc(C#CC4=CCCCC4)cc13)CC2: 1.76

Could I get composite z-score for every one of these entries?
1. C[C@]1(C(=O)NC2CC2)c2ccccc2C(=O)N(Cc2cc(F)cc(C(F)(F)F)c2)[C@H]1c1ccc(CO)cc1
2. O=C1O[C@H](c2ccccc2)[C@H](c2ccccc2)N2[C@H]1[C@@H](C(=O)O)[C@]1(C(=O)Nc3ccccc31)[C@H]2c1ccc(OCCO)cc1
3. CC(C)C[C@@H]1NC(=O)[C@H]2C[C@@H](C(=O)O)[C@@H](c3cccc(OCCO)c3)N2C1=O

Reply:
1. 1.26
2. 1.26
3. 1.49

Could I get composite z-score for every one of these entries?
1. COC(=O)[C@@]1(Cc2ccc(F)cc2)[C@H]2c3cc(C(=O)N4CCCC4)n(C[C@H](O)CO)c3C[C@H]2CN1C(=O)c1ccccc1
2. [N-]=[N+]=NCc1ccccc1[C@H]1OC(c2ccc(OCCCO)cc2)=N[C@@]1(CCS(=O)(=O)c1ccccc1)C(=O)NCCN1CCOCC1
3. CN1C2C=C(c3ccc(CO)cc3)C(C3C(=O)N(C(N)=O)C(=O)C32)C1C1CC1 (configuration not stated)
4. CN1C(=O)C2C=CC(C(O)c3ccc(I)cc3)N(N(c3ccccc3)c3ccccc3)C2C1=O (configuration not stated)

Reply:
[1.09, 1.35, 0.573, -0.456]

Could I get composite z-score for every one of these entries?
1. NCCCCCCNC(=O)[C@@H]1C[C@@H]2C(=O)NCC(=O)N2[C@@H]1c1cccc(OCCO)c1
2. O=C1O[C@@H](c2ccccc2)[C@@H](c2ccccc2)N2[C@@H](c3ccccc3OCCO)[C@]3(C(=O)Nc4ccc(C#CC5(O)CCCCCC5)cc43)[C@@H](C(=O)N3CCCCCCC3)[C@H]12
3. COCCOC(=O)N1C(=O)[C@@]2(c3cc(C#CCCO)ccc31)[C@H](c1ccc(O)cc1)N1[C@H](c3ccccc3)[C@H](c3ccccc3)OC(=O)[C@H]1[C@@H]2C(=O)NC[C@H](O)c1ccccc1
4. COC(=O)C(CC#Cc1ccc2c(c1)[C@]1(C(=O)N2)[C@H](C(N)=O)[C@H]2C(=O)O[C@H](c3ccccc3)[C@H](c3ccccc3)N2[C@@H]1c1ccccc1OCCO)C(=O)OC
5. COc1cccc(C)c1NC(=O)O[C@H]1[C@H](OC(=O)Nc2ccc3c(c2)OCO3)[C@H](OC(=O)Nc2ccc3c(c2)OCO3)[C@@H](OC)O[C@@H]1CO

Reply:
1. -0.207
2. 2.72
3. 2.05
4. 1.25
5. 1.61

###

protocol.summary: small-molecule microarray binders of probe aDKK1, primary screen, biochemical, biotinylated probe, 635/667 nm fluorescence (AID 1099);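 further: score merges 667nm spot fluorescence with signal to noise across triplicate slides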
stated.conditions: higher = more signal
Provide the reported composite z-score of each item.
Numbers only.

Some solved entries appear below for comparison.
O=C(NC1CC1)[C@@H]1c2ccccc2C(=O)N(C2CCCCC2)[C@H]1c1ccc(CO)cc1: 1.84
COc1ccc([Si](C)(C)[C@H]2[C@H](CC(=O)N(CCO)Cc3ccccc3)O[C@@]3(C(=O)N(Cc4ccc(N5C(=O)c6cccc7cccc5c67)cc4)c4ccccc43)[C@@H]2C)cc1: 0.0486

Could I get composite z-score for every one of these entries?
1. C=CCNC(=O)[C@@H]1[C@H]2C(=O)O[C@H](c3ccccc3)[C@H](c3ccccc3)N2[C@H](c2ccc(O)cc2)[C@@]12C(=O)N(C(=O)OCCOC)c1ccc(C#CCC(C(=O)OC)C(=O)OC)cc12
2. COCCOC(=O)N1C(=O)[C@@]2(c3cc(C#CCC(C(=O)OC)C(=O)OC)ccc31)[C@H](C(=O)N1CCc3cc(OC)c(OC)cc3C1)[C@H]1C(=O)O[C@H](c3ccccc3)[C@H](c3ccccc3)N1[C@@H]2c1ccccc1OCCO
3. CC(C)N1C(=O)[C@@]2(Cc3ccccc31)c1ccccc1C(=O)N(Cc1ccccc1)[C@H]2c1ccc(CO)cc1
4. C=CCOC(=O)[C@H]1[C@@H]2C(=O)O[C@@H](c3ccccc3)[C@@H](c3ccccc3)N2[C@@H](c2ccc(OCCOC(=O)[C@H]3C[C@H]4C(=O)NCC(=O)N4[C@H]3c3cccc(OCCO)c3)cc2)[C@]12C(=O)Nc1ccc(I)cc12
5. COC(=O)[C@@]1(Cc2ccc(F)cc2)[C@H]2c3cc(C(=O)N(C)C)n(Cc4ccsc4Br)c3C[C@H]2CN1C(=O)c1ccccc1

Reply:
1: -0.0333; 2: -0.381; 3: -1.02; 4: -0.109; 5: 2.31

Could I get composite z-score for every one of these entries?
1. C=C(C(=O)CC[C@@H](OC(=O)c1ccccc1-c1ccccc1C(=O)O)c1ccc(CO)o1)C(C)C
2. COc1ccc(C(=O)Nc2ccc(CN3C(=O)[C@]4(O[C@H](CC(=O)N(CCO)Cc5ccccc5)[C@@H]([Si](C)(C)c5ccc(OC)cc5)[C@@H]4C)c4ccccc43)cc2)cc1
3. COC(=O)C(CC#Cc1ccc2c(c1)[C@]1(C(=O)N2)[C@H](c2ccccc2OCCO)N2[C@H](c3ccccc3)[C@H](c3ccccc3)OC(=O)[C@H]2[C@@H]1C(=O)N1CCN(c2ncccn2)CC1)C(=O)OC
4. CCOC(=O)C[C@H]1[C@H](OC(=O)c2cc3ccccc3oc2=O)[C@@H](NC(=O)c2ccc(-c3ccccc3)cc2)c2cc(OCCCO)ccc2N1C(=O)Cc1ccc(OC)cc1

Reply:
-0.258
-0.0522
-0.216
0.0384

###

protocol.summary: small-molecule microarray binders of probe aEGFR, primary screen, biochemical, biotinylated probe, 635/667 nm fluorescence (AID 1097);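 further: probe is a biotinylated anti-EGFR antibody binding compounds printed on slides; score combines fluorescence near 667 nm and signal to noise of each spot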
stated.conditions: higher = more signal
Provide the reported composite z-score of each item.
One number for each entry.

Some solved entries appear below for comparison.
O=C1c2ccccc2[C@](Cc2ccccc2I)(C(=O)NCCN2CCOCC2)[C@H](c2ccc(CO)cc2)N1Cc1ccccc1C(F)(F)F: -0.109
CC[C@@H](O[Si](C#C[Si](C(C)C)(C(C)C)C(C)C)(C(C)C)C(C)C)c1cn([C@H](CO)Cc2ccccc2)nn1: -0.0584

Could I get composite z-score for every one of these entries?
1. Cc1ccc(S[C@]2(C(=O)NC3CC3)CC(=O)N(C3Cc4ccccc4C3)[C@@H]2c2ccc(CO)cc2I)cc1
2. C[N+](C)(C)CCCC[C@@H]1NC(=O)[C@H]2C[C@@H](C(=O)O)[C@@H](c3ccc(O)cc3)N2C1=O

Reply:
1: -0.269; 2: -0.158

###

test.system: Torsin-1A-interacting protein 2 (Homo sapiens) (UniProt Q8NFQ8)
Sequence (Q8NFQ8 whole entry, looked up): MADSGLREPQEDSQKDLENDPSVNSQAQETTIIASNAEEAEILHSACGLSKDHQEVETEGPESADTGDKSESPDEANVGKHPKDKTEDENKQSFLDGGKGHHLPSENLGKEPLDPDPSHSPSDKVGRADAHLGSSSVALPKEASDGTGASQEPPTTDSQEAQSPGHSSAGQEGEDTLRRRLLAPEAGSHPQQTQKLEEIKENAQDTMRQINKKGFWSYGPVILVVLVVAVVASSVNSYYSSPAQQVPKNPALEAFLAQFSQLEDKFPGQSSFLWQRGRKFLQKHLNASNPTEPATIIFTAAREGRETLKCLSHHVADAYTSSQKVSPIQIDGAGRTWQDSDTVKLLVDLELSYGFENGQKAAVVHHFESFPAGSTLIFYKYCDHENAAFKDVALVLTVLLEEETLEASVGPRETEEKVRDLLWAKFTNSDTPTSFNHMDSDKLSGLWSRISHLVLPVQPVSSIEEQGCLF
protocol.summary: LULL1 binders on small-molecule microarray, primary screen, cell lysate, human LULL1 lysate, 635/667 nm fluorescence (AID 1092);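 further: probe is lysate of COS7 cells overexpressing human LULL1; score merges per-feature 667 nm fluorescence with signal-to-noise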
stated.conditions: hLULL1 lysate binding, 635 nm fluorescence, higher = more signal
Provide the reported composite z-score of each item.
Numbers only.

Could I get composite z-score for every one of these entries?
1. C=CCNC(=O)[C@H]1[C@@H]2C(=O)O[C@@H](c3ccccc3)[C@@H](c3ccccc3)N2[C@@H](c2ccc(O)cc2)[C@]12C(=O)N(C(=O)OCCOC)c1ccc(C#Cc3ccc(OC)cc3)cc12
2. COCCCNC(=O)[C@]1(Cc2ccccc2N=[N+]=[N-])N=C(c2ccc(OCCCO)cc2)O[C@@H]1c1ccccc1
3. CC(C)c1ccc(NN2C(C(O)C3=C[C@H]4C[C@@H](C3)C4(C)C)C=CC3C(=O)N(c4ccccc4)C(=O)C32)cc1 (some centres undefined)
4. C=C(CCCC)C(=O)CC[C@@H](OC(C)=O)c1ccc(OCCO)cc1
5. CC(=O)NCCCC[C@@H]1NC(=O)[C@H]2C[C@@H](C(=O)NCCCCCN)[C@@H](c3ccc(O)cc3)N2C1=O
6. CCOC(=O)C[C@H]1[C@H](OC(=O)c2ccccc2-c2ccccc2)[C@@H](NC(=O)CC(C)C)c2cc(OCCCO)ccc2N1C(=O)c1ccccc1
7. C=CCNC(=O)[C@@H]1[C@H]2C(=O)O[C@H](c3ccccc3)[C@H](c3ccccc3)N2[C@H](c2ccc(OCCO)cc2)[C@@]12C(=O)N(C(=O)OCCOC)c1ccccc12

Reply:
[2.23, 3.23, 2.6, 0.742, 2.05, 0.583, 2.92]

Could I get composite z-score for every one of these entries?
1. CCOC(=O)C1=CC[C@@H](c2ccccc2)N(S(=O)(=O)c2ccc(C)cc2)[C@@H]1C#N
2. Cc1cccc([C@H]2C[C@H]3C(Br)=C[C@@]2(CO)C(=O)[C@]32CO2)c1
3. COc1ccc(C(=O)Nc2cccc(CN3C(=O)[C@]4(O[C@H](CC(=O)N(CCO)Cc5ccccc5)[C@@H]([Si](C)(C)c5ccc(OC)cc5)[C@@H]4C)c4ccccc43)c2)cc1
4. O=C1c2ccccc2[C@@]2(Cc3ccccc3N(CC(F)(F)F)C2=O)[C@H](c2ccc(CO)cc2)N1Cc1ccccc1
5. C[C@]1(C(=O)NCC(F)(F)F)c2ccccc2C(=O)N(Cc2cc(C(F)(F)F)cc(C(F)(F)F)c2)[C@H]1c1ccc(CO)cc1
6. COC(=O)c1c2oc(c1C(=O)OC)C(=O)N[C@H](Cc1ccccc1)Cn1cc(nn1)C1(CCCCC1)NC(=O)N[C@H](CO)CC2
7. COCCOC(=O)N1C(=O)[C@@]2(c3cc(C#CC4(O)CCCCCC4)ccc31)[C@H](C(N)=O)[C@H]1C(=O)O[C@H](c3ccccc3)[C@H](c3ccccc3)N1[C@@H]2c1ccc(OCCO)cc1

Reply:
[2.69, 2.39, 1.69, -0.117, 1.35, 1.46, 2.51]
